# study.target: T1, recombinant human OX40-his (Sino Biological, Cat#:10481-H03H) (human, UniProt P43489 29-214)
# T1 construct: bought protein; also called hOX40-his; not shown: His tag
# T1 sequence: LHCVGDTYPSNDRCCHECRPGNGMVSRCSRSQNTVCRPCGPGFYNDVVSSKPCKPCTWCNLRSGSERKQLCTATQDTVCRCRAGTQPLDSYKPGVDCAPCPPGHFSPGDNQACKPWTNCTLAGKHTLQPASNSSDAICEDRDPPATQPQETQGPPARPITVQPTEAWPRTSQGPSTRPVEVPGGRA
# method.description: SPR Biacore 8K, OX40-His on chip, antibody injected
# Description: SPR assays were used to determine the binding affinity of the chimetic or humanized anti-OX40 antibodies to human OX40 with the BIAcore™ 8K instrument (GE Life Sciences). […] The binding capacitity was calculated with the RUs of blank controls subtracted. The association rate (k_a) and dissociation rate (k_d) were calculated using the one-to-one Langmuir binding model (BIA Evaluation Software, GE Life Sciences). The equilibrium dissociation constant K_D was calculated as the k_d/k_a ratio.
pKd: −log10 of the molar value.
measure: pKd

| binder | measured.number |
| --- | --- |
| 71H8-VH0VL0 (antibody, human IgG1, kappa, V domains shown, humanized; also called 71H8-H0L0) VH: QVQLVQSGAEVKKPGASVKVSCKVSGDTFTSYWITWVRQAPGKGLEWMGDIYPGSGSTNQNEKFKSRVTMTEDTSTDTAYMELSSLRSEDTAVYYCATLRPYYFVYWGQGTLVTVSS VL: DIQMTQSPSSLSASVGDRVTITCRASQDISNYLNWYQQKPGKAPKLLIYYTSRLLSGVPSRFSGSGSGTDFTLTISSLQPEDFATYYCQQGNTLPLTFGQGTRLEIKR | 8.04 |
| 68C8-VH0VL0 (antibody, human IgG1, kappa, V domains shown, humanized; also called 68C8-H0L0) VH: QVQLVQSGAEVKKPGASVKVSCKVSGDTFTSYWITWVRQAPGKGLEWMGDIHPGSGSTNNNEKFKNRVTMTEDTSTDTAYMELSSLRSEDTAVYYCATLRPYYFVYWGQGTLVTVSS VL: DIQMTQSPSSLSASVGDRVTITCRASQDISNYLNWYQQKPGKAPKLLIYYTSRLLSGVPSRFSGSGSGTDFTLTISSLQPEDFATYYCQQGNTLPLTFGQGTRLEIKR | 8.35 |
| 71H8-VH3VL3 (antibody, human IgG1, kappa, V domains shown, humanized; also called 71H8-H3L3) VH: QVQLVQSGAEVKKPGASVKVSCKVSGYTFTSYWITWVRQRPGQGLEWIGDIYPGSGSTNQNEKFKSRVTLTVDTSTDTAYMELSSLRSEDTAVYYCATLRPYYFVYWGQGTLVTVSS VL: DIQMTQSPSSLSASVGDRVTITCRASQDISNYLNWYQQKPGKTVKLLIYYTSRLLSGVPSRFSGSGSGTDYTLTISSLQPEDFATYFCQQGNTLPLTFGQGTRLEIKR | 8.20 |
| 68C8-VH3VL2 (antibody, human IgG1, kappa, V domains shown, humanized; also called 68C8-H3L2) VH: QVQLVQSGAEVKKPGASVKVSCKVSGDTFTSYWITWVRQRPGQGLEWIGDIHPGSGSTNNNEKFKNRVTLTVDTSTDTAYMELSSLRSEDTAVYYCATLRPYYFVYWGQGTLVTVSS VL: DIQMTQSPSSLSASVGDRVTITCRASQDISNYLNWYQQKPGKTPKLLIYYTSRLLSGVPSRFSGSGSGTDYTLTISSLQPEDFATYYCQQGNTLPLTFGQGTRLEIKR | 8.02 |
| 68C8-VH2VL3 (antibody, human IgG1, kappa, V domains shown, humanized; also called 68C8-H2L3; 68C8H2L3) VH: QVQLVQSGAEVKKPGASVKVSCKVSGDTFTSYWITWVRQRPGKGLEWMGDIHPGSGSTNNNEKFKNRVTMTVDTSTDTAYMELSSLRSEDTAVYYCATLRPYYFVYWGQGTLVTVSS VL: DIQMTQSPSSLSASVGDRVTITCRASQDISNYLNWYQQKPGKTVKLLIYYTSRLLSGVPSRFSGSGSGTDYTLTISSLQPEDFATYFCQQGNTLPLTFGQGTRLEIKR | 8.71 |
| 68C8-VH2VL2 (antibody, human IgG1, kappa, V domains shown, humanized; also called 68C8-H2L2) VH: QVQLVQSGAEVKKPGASVKVSCKVSGDTFTSYWITWVRQRPGKGLEWMGDIHPGSGSTNNNEKFKNRVTMTVDTSTDTAYMELSSLRSEDTAVYYCATLRPYYFVYWGQGTLVTVSS VL: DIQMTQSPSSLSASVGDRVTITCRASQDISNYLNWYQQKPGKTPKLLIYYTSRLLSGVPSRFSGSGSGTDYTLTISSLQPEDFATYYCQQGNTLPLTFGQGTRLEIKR | 8.29 |
| 71H8-VH2VL2 (antibody, human IgG1, kappa, V domains shown, humanized; also called 71H8-H2L2) VH: QVQLVQSGAEVKKPGASVKVSCKVSGYTFTSYWITWVRQRPGKGLEWMGDIYPGSGSTNQNEKFKSRVTMTVDTSTDTAYMELSSLRSEDTAVYYCATLRPYYFVYWGQGTLVTVSS VL: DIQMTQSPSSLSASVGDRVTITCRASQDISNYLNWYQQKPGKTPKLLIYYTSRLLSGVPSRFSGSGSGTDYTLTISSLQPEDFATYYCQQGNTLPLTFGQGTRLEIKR | 8.32 |
